biological target: WT HIV-1 protease (Human immunodeficiency virus type 1 group M subtype B (isolate HXB2) (HIV-1)); assay: Assay for inhibition of microbial expressed HIV protease (Procedure A, peptide substrate, HPLC fluorescence detection); conditions: WT HIV-1 protease 10 pM, substrate 400 micromolar, pH 5.5, 30 min preincubation, 1 hour at 30° C.; read-out: Enzyme inhibition IC50
Measurement kind: pIC50
One number for each entry, as −log10 of the molar value.

COC(=O)N[C@H](C(=O)NCc1ccc(C(CO)N(Cc2cc3ccccc3[nH]2)S(=O)(=O)c2ccc3scnc3c2)s1)C(c1ccccc1)c1ccccc1 (stereo partly shown): 7.87

# batch size: 3; output pIC50 per entry
1. COC(=O)N[C@H](C(=O)NCc1ccc([C@@H](CO)N(CC2CC(F)(F)C2)S(=O)(=O)c2ccc3cc[nH]c3c2)s1)C(c1ccccc1)c1ccccc1
2. CC(C)CN(C(CO)c1ccc(CNC(=O)C(NC(=O)c2ccccc2)C(c2ccccc2)c2cn(C)c3ccccc23)s1)S(=O)(=O)c1ccc2ncsc2c1 (stereo not shown)
3. COC(=O)N[C@H](C(=O)NCc1ccc([C@@H](CO)N(CC(C)C)S(=O)(=O)c2ccc3ncsc3c2)s1)C(c1ccccc1)c1ccccc1

[8.05, 8.10, 8.20]

* * *

Target: WT HIV-1 protease (Human immunodeficiency virus type 1 group M subtype B (isolate HXB2) (HIV-1))
Experiment: Assay for inhibition of microbial expressed HIV protease (Procedure A, peptide substrate, HPLC fluorescence detection)
Type: biochemical
Settings: WT HIV-1 protease 10 pM, substrate 400 micromolar, pH 5.5, 30 min preincubation, 1 hour at 30° C.; read-out: Enzyme inhibition IC50
Experimental: The inhibition of WT HIV-1 protease was studied using the reaction of the protease (expressed in Eschericia coli) with a peptide substrate [Val-Ser-Gln-Asn-(betanaphthyl)Ala-Pro-Ile-Val (SEQ ID NO:1)]. Compounds were tested using Procedure A. In Procedure A, the test compound was first preincubated with the enzyme in assay buffer (50 mM sodium acetate, pH 5.5, 100 mM NaCl, and 0.1% BSA) for 30 minutes at room temperature. […]
Measurement kind: IC50 (nM)
Numbers only, in nM.

Report IC50 for each item below.
1. COC(=O)N[C@H](C(=O)N[C@H](c1ccc([C@@H](CO)N(CCC(C)(C)C)S(=O)(=O)c2cc3ccccc3[nH]2)s1)C(F)(F)F)C(c1ccccc1)c1ccccc1
2. COC(=O)N[C@H](C(=O)NCc1ccc(C(CO)N(CCC(C)C)S(=O)(=O)c2ccc(CO)cc2)s1)C(c1ccccc1)c1ccccc1 (some centres unmarked)
3. CC(C)CN(C(CO)c1ccc(CNC(=O)C(NC(=O)c2ccccc2)C(c2ccccc2)c2ccncc2F)s1)S(=O)(=O)c1ccc2ncsc2c1 (centres unmarked)

1: 45.8; 2: 0.54; 3: 568

Hi, could you look up IC50 for each item in my list?
1. COC(=O)N[C@H](C(=O)N[C@H](c1ccc([C@@H](CO)N(C(C)C)S(=O)(=O)c2ccc(CO)cc2)s1)C(F)(F)F)C(c1ccccc1)c1ccccc1
2. COC(=O)N[C@H](C(=O)NC(C)c1ccc(C(CO)N(CCC(C)C)S(=O)(=O)c2ccc(CO)cc2)s1)C(c1ccccc1)c1ccccc1 (some centres unmarked)
3. CC(C)CN(C(CO)c1ccc(CNC(=O)C(NC(=O)c2ccccc2)C(c2ccccc2)c2cccc3ncccc23)s1)S(=O)(=O)c1ccc2ncsc2c1 (centres unmarked)
4. COC(=O)N[C@H](C(=O)NCc1csc(C(CO)N(CCC(C)C)S(=O)(=O)c2ccccc2)c1)C(c1ccccc1)c1ccccc1 (some centres unmarked)
5. COC(=O)N[C@H](C(=O)N[C@H](c1ccc([C@@H](CO)N(CCC(C)(C)C)S(=O)(=O)c2cn3ccnc3cn2)s1)C(F)(F)F)C(c1ccccc1)c1ccccc1 [Example 122]
6. COC(=O)N[C@H](C(=O)N[C@H](c1ccc([C@@H](CO)N(CCC(C)(C)C)S(=O)(=O)c2ccc3cn[nH]c3c2)s1)C(F)(F)F)C(c1ccccc1)c1ccccc1
7. COC(=O)N[C@H](C(=O)N[C@H](c1ccc([C@@H](CO)N(CCC(C)(C)C)S(=O)(=O)c2ccn3ncnc3c2)s1)C(F)(F)F)C(c1ccccc1)c1ccccc1
8. CC(C)CN(C(CO)c1ccc(CNC(=O)C(NC(=O)c2ccccc2)C(c2ccccc2)c2cccc3ccncc23)s1)S(=O)(=O)c1ccc2ncsc2c1 (centres unmarked)

1: 0.18; 2: 0.31; 3: 4.76; 4: 72.8; 5: 5.78; 6: 0.63; 7: 3; 8: 7

* * *

target: WT HIV-1 protease (Human immunodeficiency virus type 1 group M subtype B (isolate HXB2) (HIV-1), UniProt P04585); assay: Assay for inhibition of microbial expressed HIV protease (Procedure A, peptide substrate, HPLC fluorescence detection); conditions: WT HIV-1 protease 10 pM, substrate 400 micromolar, pH 5.5, 30 min preincubation, 1 hour at 30° C.; read-out: Enzyme inhibition IC50
Values of IC50 strictly less than 7 nM map to y, and values of at least 7 nM map to n.

Some solved entries appear below for comparison.
COC(=O)N[C@H](C(=O)N[C@H](c1ccc([C@@H](CO)N(C(C)C)S(=O)(=O)c2ccc(N)s2)s1)C(F)(F)F)C(c1ccccc1)c1ccccc1: n
COC(=O)N[C@H](C(=O)N[C@H](c1ccc([C@@H](CO)N(C(C)C)S(=O)(=O)c2ccc3cn[nH]c3c2)s1)C(F)(F)F)C(c1ccccc1)c1ccccc1: n
COC(=O)N[C@H](C(=O)NCc1ccc([C@@H](CO)N(CC2CC(F)(F)C2)S(=O)(=O)c2cccc(Cc3ccccn3)c2)s1)C(c1ccccc1)c1ccccc1: n
COC(=O)N[C@H](C(=O)NCc1ccc([C@@H](CO)N(CC2CC(F)(F)C2)S(=O)(=O)c2ccc(N)c(F)c2)s1)C(c1ccccc1)c1ccccc1: y
[2H]C([2H])([2H])C([2H])(N([C@H](CO)c1ccc([C@@H](NC(=O)[C@@H](NC(=O)OC)C(c2ccccc2)c2ccccc2)C(F)(F)F)s1)S(=O)(=O)c1ccc2[nH]ncc2c1)C([2H])([2H])[2H]: n
COC(=O)N[C@H](C(=O)NCc1ccc(C(CO)N(Cc2cnn(S(=O)(=O)N(C)C)c2)S(=O)(=O)c2ccc3scnc3c2)s1)C(c1ccccc1)c1ccccc1 (stereo partly drawn): y

Please state whether IC50 is below 7 nM for `CCCCN([C@H](CO)c1ccc([C@@H](NC(=O)[C@@H](NC(=O)OC)C(c2ccccc2)c2ccccc2)C(F)(F)F)s1)S(=O)(=O)c1ccc(N)cc1` y

Quick check: IC50 of `COC(=O)N[C@H](C(=O)NCc1ccc([C@@H](CO)N(Cc2cc3ccccc3[nH]2)S(=O)(=O)c2ccc3scnc3c2)s1)C(c1ccccc1)c1ccccc1` under 7 nM? n

# check: IC50 < 7 nM for `COC(=O)N[C@H](C(=O)NCc1ccc([C@@H](CO)N(CC2CC(F)(F)C2)S(=O)(=O)c2cccc(CC(C)(C)O)c2)s1)C(c1ccccc1)c1ccccc1` y

In plain terms, does `COC(=O)N[C@H](C(=O)N[C@@H](C)c1ccc([C@@H](CO)N(C(C)C)S(=O)(=O)c2ccc(N)cc2)s1)C(c1ccccc1)c1ccccc1` come in under 7 nM for IC50? n

Given `COC(=O)N[C@H](C(=O)NCc1ccc([C@@H](CO)N(Cc2ccnc(OC)c2)S(=O)(=O)c2ccc3scnc3c2)s1)C(c1ccccc1)c1ccccc1` , is recorded IC50 strictly lower than 7 nM? y

Field: below-cutoff. Rule: recorded IC50 strictly less than 7 nM. Subject: `COC(=O)N[C@H](C(=O)N[C@H](c1ccc([C@@H](CO)N(CCC(C)(C)C)S(=O)(=O)c2ccc(CO)c(C(F)(F)F)c2)s1)C(F)(F)F)C(c1ccccc1)c1ccccc1` n

Determine if `COC(=O)N[C@H](C(=O)N[C@H](c1ccc([C@@H](CO)N(CCC(C)(C)C)S(=O)(=O)c2ccc3nn[nH]c3c2)s1)C(F)(F)F)C(c1ccccc1)c1ccccc1` shows IC50 strictly lower than 7 nM. y

Hello, is IC50 of the following compound strictly smaller than 7 nM? `COC(=O)N[C@H](C(=O)N[C@@H](c1ccc([C@@H](CO)N(CC(C)C)S(=O)(=O)c2ccc(N)cc2)s1)C(F)(F)F)C(c1ccccc1)c1ccccc1` n

Consider `COC(=O)N[C@H](C(=O)NCc1ccc([C@@H](CO)N(Cc2cc3cccnc3[nH]2)S(=O)(=O)c2ccc3scnc3c2)s1)C(c1ccccc1)c1ccccc1` . Does its IC50 lie strictly below 7 nM? n
